# Target of assay: JAK2 (Homo sapiens, UniProt O60674)
# Sequence (O60674 whole entry): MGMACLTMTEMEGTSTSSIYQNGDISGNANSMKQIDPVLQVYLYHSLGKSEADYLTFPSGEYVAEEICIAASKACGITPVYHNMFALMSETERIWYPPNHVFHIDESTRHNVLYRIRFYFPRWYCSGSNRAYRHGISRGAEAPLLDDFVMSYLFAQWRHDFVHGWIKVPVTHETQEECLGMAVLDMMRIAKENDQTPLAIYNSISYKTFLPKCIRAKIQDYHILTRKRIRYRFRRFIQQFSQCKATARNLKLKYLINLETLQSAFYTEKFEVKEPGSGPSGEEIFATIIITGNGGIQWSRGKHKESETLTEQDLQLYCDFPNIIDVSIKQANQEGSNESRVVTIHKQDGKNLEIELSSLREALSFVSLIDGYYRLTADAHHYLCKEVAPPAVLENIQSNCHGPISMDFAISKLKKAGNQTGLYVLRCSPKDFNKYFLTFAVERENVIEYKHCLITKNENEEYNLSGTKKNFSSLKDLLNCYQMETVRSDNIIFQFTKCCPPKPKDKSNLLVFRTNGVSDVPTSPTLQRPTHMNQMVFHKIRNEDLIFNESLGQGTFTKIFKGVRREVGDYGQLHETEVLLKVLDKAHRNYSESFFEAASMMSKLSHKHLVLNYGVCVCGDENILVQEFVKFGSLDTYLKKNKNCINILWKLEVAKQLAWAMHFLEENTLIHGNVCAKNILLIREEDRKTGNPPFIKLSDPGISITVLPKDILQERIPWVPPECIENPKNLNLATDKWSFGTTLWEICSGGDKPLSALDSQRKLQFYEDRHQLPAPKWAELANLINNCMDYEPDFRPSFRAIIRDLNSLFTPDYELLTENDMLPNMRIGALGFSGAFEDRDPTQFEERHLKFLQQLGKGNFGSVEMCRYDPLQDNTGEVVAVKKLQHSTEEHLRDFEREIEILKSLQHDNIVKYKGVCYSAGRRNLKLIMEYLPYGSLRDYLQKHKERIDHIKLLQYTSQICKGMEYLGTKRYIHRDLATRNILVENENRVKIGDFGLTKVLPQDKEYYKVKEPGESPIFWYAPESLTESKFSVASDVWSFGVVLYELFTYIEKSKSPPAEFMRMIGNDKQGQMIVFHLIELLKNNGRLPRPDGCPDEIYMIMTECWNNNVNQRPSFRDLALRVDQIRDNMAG
# Procedure text: JAK2 inhibition assay (as Example 3 with JAK-2 enzyme)
# Type: biochemical
# Experimental conditions: Table 6; enzyme inhibition data (Ki)
Entries and their Ki

{"Compound": "N#CCNC(=O)c1cc(-c2ccnc3[nH]ccc23)c[nH]1", "Target of assay": "JAK2 (Homo sapiens, UniProt O60674)", "Ki": "< 0.5 µM"}
{"Compound": "O=C(Cc1nc(-c2ccnc3[nH]ccc23)ncc1F)NCC(F)(F)F", "Target of assay": "JAK2 (Homo sapiens, UniProt O60674)", "Ki": "< 0.5 µM"}
{"Compound": "CC1CCC(C)N1C(=O)c1cc(-c2c(Cl)cnc3[nH]ccc23)c[nH]1 (stereo not drawn)", "Target of assay": "JAK2 (Homo sapiens, UniProt O60674)", "Ki": "< 0.5 µM"}
{"Compound": "Cc1csc(-c2c(Cl)cnc3[nH]ccc23)c1", "Target of assay": "JAK2 (Homo sapiens, UniProt O60674)", "Ki": "< 0.5 µM"}
{"Compound": "CCCN(CCC)C(=O)c1cc(-c2ccnc3[nH]ccc23)c[nH]1", "Target of assay": "JAK2 (Homo sapiens, UniProt O60674)", "Ki": "< 0.5 µM"}
{"Compound": "CCNC(=O)c1ccc(-c2ccnc3[nH]ccc23)cc1", "Target of assay": "JAK2 (Homo sapiens, UniProt O60674)", "Ki": "< 0.5 µM"}
{"Compound": "CS(=O)(=O)N1CC[C@H](Nc2c(Cl)cnc3[nH]ccc23)C1", "Target of assay": "JAK2 (Homo sapiens, UniProt O60674)", "Ki": "< 0.5 µM"}
{"Compound": "CCN(CC)C(=O)c1cc(-c2ccnc3[nH]ccc23)c[nH]1", "Target of assay": "JAK2 (Homo sapiens, UniProt O60674)", "Ki": "< 0.5 µM"}
{"Compound": "CN(CCC#N)C(=O)c1ccc(-c2ccnc3[nH]ccc23)s1", "Target of assay": "JAK2 (Homo sapiens, UniProt O60674)", "Ki": "< 0.5 µM"}
{"Compound": "CN(CCC#N)C(=O)c1cc(-c2ccnc3[nH]ccc23)c[nH]1", "Target of assay": "JAK2 (Homo sapiens, UniProt O60674)", "Ki": "< 0.5 µM"}
{"Compound": "CS(=O)(=O)Nc1ccccc1-c1ccnc2[nH]ccc12", "Target of assay": "JAK2 (Homo sapiens, UniProt O60674)", "Ki": "> 5 µM"}
{"Compound": "O=C(NCC(F)(F)F)[C@H](CO)Nc1nc(-c2ccnc3[nH]ccc23)ncc1F", "Target of assay": "JAK2 (Homo sapiens, UniProt O60674)", "Ki": "0.5 to 5 µM"}
{"Compound": "CCCN(CC1CC1)C(=O)c1ccc(-c2ccnc3[nH]ccc23)s1", "Target of assay": "JAK2 (Homo sapiens, UniProt O60674)", "Ki": "< 0.5 µM"}
{"Compound": "Cc1cc(F)ccc1-c1ccnc2[nH]ccc12", "Target of assay": "JAK2 (Homo sapiens, UniProt O60674)", "Ki": "> 5 µM"}
{"Compound": "NC(=O)C1CCCN1C(=O)c1cc(-c2c(Cl)cnc3[nH]ccc23)c[nH]1 (stereo not drawn)", "Target of assay": "JAK2 (Homo sapiens, UniProt O60674)", "Ki": "< 0.5 µM"}
{"Compound": "O=C(O)c1cc(-c2ccnc3[nH]ccc23)c[nH]1", "Target of assay": "JAK2 (Homo sapiens, UniProt O60674)", "Ki": "0.5 to 5 µM"}
{"Compound": "O=C(c1cc(-c2c(Cl)cnc3[nH]ccc23)c[nH]1)N1CCCC1C(F)(F)F (stereo not drawn)", "Target of assay": "JAK2 (Homo sapiens, UniProt O60674)", "Ki": "< 0.5 µM"}
{"Compound": "COc1ccc(OC)c(-c2ccnc3[nH]ccc23)c1", "Target of assay": "JAK2 (Homo sapiens, UniProt O60674)", "Ki": "> 5 µM"}
{"Compound": "CCCCN(CCC#N)C(=O)c1ccc(-c2ccnc3[nH]ccc23)s1", "Target of assay": "JAK2 (Homo sapiens, UniProt O60674)", "Ki": "< 0.5 µM"}
{"Compound": "CC(C)CN(C)C(=O)c1ccc(-c2ccnc3[nH]ccc23)s1", "Target of assay": "JAK2 (Homo sapiens, UniProt O60674)", "Ki": "< 0.5 µM"}
{"Compound": "CC1CCCCC1Nc1c(Cl)cnc2[nH]ccc12 (stereo not drawn)", "Target of assay": "JAK2 (Homo sapiens, UniProt O60674)", "Ki": "< 0.5 µM"}
{"Compound": "N#CCCN(CCC(F)(F)F)C(=O)c1cc(-c2c(F)cnc3[nH]ccc23)c[nH]1", "Target of assay": "JAK2 (Homo sapiens, UniProt O60674)", "Ki": "< 0.5 µM"}
{"Compound": "O=C(c1cc(-c2c(Cl)cnc3[nH]ccc23)c[nH]1)N1CCCC1CO (stereo not drawn)", "Target of assay": "JAK2 (Homo sapiens, UniProt O60674)", "Ki": "< 0.5 µM"}
{"Compound": "C[C@@H]1CC[C@H](C)N1C(=O)c1csc(-c2ccnc3[nH]ccc23)n1", "Target of assay": "JAK2 (Homo sapiens, UniProt O60674)", "Ki": "< 0.5 µM"}
{"Compound": "O=C(NCC(F)(F)F)[C@@H]1CCCN1c1nc(-c2ccnc3[nH]ccc23)ncc1F", "Target of assay": "JAK2 (Homo sapiens, UniProt O60674)", "Ki": "0.5 to 5 µM"}
{"Compound": "N#CCC(=O)N1CCCC(Nc2c(Cl)cnc3[nH]ccc23)C1 (stereo not drawn)", "Target of assay": "JAK2 (Homo sapiens, UniProt O60674)", "Ki": "< 0.5 µM"}
{"Compound": "Clc1ccc(-c2ccnc3[nH]ccc23)c(Cl)c1", "Target of assay": "JAK2 (Homo sapiens, UniProt O60674)", "Ki": "0.5 to 5 µM"}
{"Compound": "CS(=O)(=O)N1CC[C@@H](Nc2c(Cl)cnc3[nH]ccc23)C1", "Target of assay": "JAK2 (Homo sapiens, UniProt O60674)", "Ki": "< 0.5 µM"}
{"Compound": "CN(C)C1CCN(C(=O)c2cc(-c3ccnc4[nH]ccc34)c[nH]2)C1 (stereo not drawn)", "Target of assay": "JAK2 (Homo sapiens, UniProt O60674)", "Ki": "0.5 to 5 µM"}
{"Compound": "N#CC1CCCN1C(=O)c1cc(-c2ccnc3[nH]ccc23)c[nH]1 (stereo not drawn)", "Target of assay": "JAK2 (Homo sapiens, UniProt O60674)", "Ki": "< 0.5 µM"}
{"Compound": "CC(C)(C)C(=O)Nc1ncccc1-c1ccnc2[nH]ccc12", "Target of assay": "JAK2 (Homo sapiens, UniProt O60674)", "Ki": "> 5 µM"}
{"Compound": "CCN(CCC#N)C(=O)c1ccc(-c2ccnc3[nH]ccc23)s1", "Target of assay": "JAK2 (Homo sapiens, UniProt O60674)", "Ki": "< 0.5 µM"}
{"Compound": "COCCN(CCOC)C(=O)c1cc(-c2c(Cl)cnc3[nH]ccc23)c[nH]1", "Target of assay": "JAK2 (Homo sapiens, UniProt O60674)", "Ki": "< 0.5 µM"}
{"Compound": "N#CCN(Cc1cccc(Cl)c1)C(=O)c1cc(-c2c(F)cnc3[nH]ccc23)c[nH]1", "Target of assay": "JAK2 (Homo sapiens, UniProt O60674)", "Ki": "< 0.5 µM"}
{"Compound": "O=C(NC1CCCC1)c1cc(-c2ccnc3[nH]ccc23)c[nH]1", "Target of assay": "JAK2 (Homo sapiens, UniProt O60674)", "Ki": "< 0.5 µM"}
{"Compound": "CCCN(CCC#N)C(=O)c1ccc(-c2ccnc3[nH]ccc23)s1", "Target of assay": "JAK2 (Homo sapiens, UniProt O60674)", "Ki": "< 0.5 µM"}

----------
# Target of assay: UniProt:P52333
# Sequence (P52333 whole entry): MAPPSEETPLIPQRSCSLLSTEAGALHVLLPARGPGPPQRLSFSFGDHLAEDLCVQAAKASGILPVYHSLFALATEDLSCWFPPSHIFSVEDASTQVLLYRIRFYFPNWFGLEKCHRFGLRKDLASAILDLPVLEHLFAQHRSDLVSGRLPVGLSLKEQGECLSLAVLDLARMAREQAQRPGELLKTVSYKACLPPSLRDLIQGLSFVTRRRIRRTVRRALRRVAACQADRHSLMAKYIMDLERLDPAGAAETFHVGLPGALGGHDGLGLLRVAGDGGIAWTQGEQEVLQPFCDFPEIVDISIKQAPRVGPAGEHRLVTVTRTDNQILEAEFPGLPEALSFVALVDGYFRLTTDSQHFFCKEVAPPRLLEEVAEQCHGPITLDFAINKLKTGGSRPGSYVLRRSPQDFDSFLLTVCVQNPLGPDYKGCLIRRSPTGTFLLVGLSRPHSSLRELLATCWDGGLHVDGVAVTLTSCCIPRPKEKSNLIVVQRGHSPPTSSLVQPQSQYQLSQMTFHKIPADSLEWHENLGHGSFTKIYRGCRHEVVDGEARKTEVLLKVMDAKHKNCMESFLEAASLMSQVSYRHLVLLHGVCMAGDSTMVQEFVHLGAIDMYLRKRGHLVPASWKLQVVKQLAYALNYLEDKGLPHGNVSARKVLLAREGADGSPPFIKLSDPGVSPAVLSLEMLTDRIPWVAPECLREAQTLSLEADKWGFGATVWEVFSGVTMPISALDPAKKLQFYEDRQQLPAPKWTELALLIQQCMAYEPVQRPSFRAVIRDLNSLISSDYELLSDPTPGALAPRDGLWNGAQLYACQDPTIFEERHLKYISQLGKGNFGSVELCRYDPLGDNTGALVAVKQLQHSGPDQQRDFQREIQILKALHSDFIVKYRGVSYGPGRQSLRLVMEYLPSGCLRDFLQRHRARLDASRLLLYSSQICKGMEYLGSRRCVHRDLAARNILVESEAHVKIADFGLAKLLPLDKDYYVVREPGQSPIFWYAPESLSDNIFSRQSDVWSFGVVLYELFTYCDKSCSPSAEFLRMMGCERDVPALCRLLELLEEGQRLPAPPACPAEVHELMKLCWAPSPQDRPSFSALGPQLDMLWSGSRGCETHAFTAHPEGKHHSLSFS
# Procedure text: JAK3 inhibition assay (33P incorporation into poly(Glu)4Tyr)
# Format: biochemical
# Experimental conditions: enzyme inhibition, Table 5
Entries and their Ki

{"Compound": "c1cc(CNC2CC2)cc(-c2ccnc3[nH]ccc23)c1 [compound 86]", "Ki": "500 to 5000 nM"}
{"Compound": "c1ncc(-c2ccnc3[nH]ccc23)cn1 [compound 104]", "Ki": "500 to 5000 nM"}
{"Compound": "C=C(c1c(Cl)cnc2[nH]ccc12)C1CCCC1 [compound 67]", "Ki": "< 500 nM"}
{"Compound": "COCCNC(=O)c1ccc(-c2ccnc3[nH]ccc23)s1 [compound 9]", "Ki": "< 500 nM"}
{"Compound": "CC(C)(C(=O)CC#N)c1cccc(-c2ccnc3[nH]ccc23)n1 [compound 125]", "Ki": "< 500 nM"}
{"Compound": "COC[C@H]1CCCN1C(=O)c1ccc(-c2ccnc3[nH]ccc23)s1 [compound 13]", "Ki": "< 500 nM"}
{"Compound": "OC1CCN(c2cccc(-c3ccnc4[nH]ccc34)n2)C1 (stereo not shown) [compound 51]", "Ki": "500 to 5000 nM"}
{"Compound": "CC(C)c1cccc(-c2ccnc3[nH]ccc23)n1 [compound 97]", "Ki": "< 500 nM"}
{"Compound": "Clc1ccccc1CCNc1cccc(-c2c(Cl)cnc3[nH]ccc23)n1 [compound 75]", "Ki": "500 to 5000 nM"}
{"Compound": "Clc1cnc2[nH]ccc2c1-c1cn[nH]c1 [compound 80]", "Ki": "< 500 nM"}
